EXPERIMENTAL PROTOCOL: photoluminescence quantum yield (fraction); solvent given as SMILES
ASSAY SETUP: in C1COCCO1
READOUT LABEL: photoluminescence quantum yield

[[record]]
molecule = "C(/C=C/c1ccc(-n2c3ccccc3c3ccccc32)cc1)=C\\c1ccncc1"
readout_label = "photoluminescence quantum yield"
numeric_readout = 0.55

[[record]]
molecule = "CC1(C)CC(=O)C2=C(C1)Oc1ccc3cc(O)ccc3c1C2c1ccccn1 (stereo not given)"
readout_label = "photoluminescence quantum yield"
numeric_readout = 0.028

[[record]]
molecule = "COC(=O)C(Cc1ccc2oc(-c3ccc4c(c3)c3ccccc3n4-c3ccccc3)nc2c1)NC(=O)OC(C)(C)C (stereo not given)"
readout_label = "photoluminescence quantum yield"
numeric_readout = 1

[[record]]
molecule = "O=C1OC(c2ccccc2)=N/C1=C\\c1ccc(N(c2ccccc2)c2ccccc2)cc1"
readout_label = "photoluminescence quantum yield"
numeric_readout = 0.045

[[record]]
molecule = "NS(=O)(=O)c1ccc(N2N=C(c3ccc(O)cc3)CC2c2ccc(F)cc2)cc1 (stereo not given)"
readout_label = "photoluminescence quantum yield"
numeric_readout = 0.78

